test system: G-361; experiment: Antiproliferative activity against human G-361 cells assessed as cell growth inhibition measured after 72 hrs; format: functional, cell-based; conditions: G-361, 72 h
measured attribute: pIC50
Give bare numbers, as −log10 of the molar value.

Examples from the recorded data:
compound="CCOC(C)Oc1cccc(/C=C/C(=O)/C=C/c2cc(OC)c(OC)c(OC)c2)c1 (centres undefined)" tested_system=G-361 result_value=6.00
compound=COc1cc(/C=C/C(=O)/C=C/c2cc(OC)c(OC)c(OC)c2)cc(OC)c1O tested_system=G-361 result_value=6.00
compound=COc1ccc(/C=C2\CCC/C(=C\c3ccc(OC)c(OC)c3)C2=O)cc1OC tested_system=G-361 result_value=5.00
compound="CCOC(C)COc1c(OC)cc(/C=C/C(=O)/C=C/c2cc(OC)c(OC)c(OC)c2)cc1OC (centres undefined)" tested_system=G-361 result_value=6.00

Looking up "COc1cc(/C=C/C(=O)/C=C/c2cccc(O)c2)cc(OC)c1OC" , I see its pIC50 listed as 6.00

Data provenance: ChEMBL document CHEMBL5244235
